- measuredOn: T1, human B7-H7 (soluble analyte in SPR) (human, UniProt Q9UM44 23-344, limits assumed)
- T1 sequence: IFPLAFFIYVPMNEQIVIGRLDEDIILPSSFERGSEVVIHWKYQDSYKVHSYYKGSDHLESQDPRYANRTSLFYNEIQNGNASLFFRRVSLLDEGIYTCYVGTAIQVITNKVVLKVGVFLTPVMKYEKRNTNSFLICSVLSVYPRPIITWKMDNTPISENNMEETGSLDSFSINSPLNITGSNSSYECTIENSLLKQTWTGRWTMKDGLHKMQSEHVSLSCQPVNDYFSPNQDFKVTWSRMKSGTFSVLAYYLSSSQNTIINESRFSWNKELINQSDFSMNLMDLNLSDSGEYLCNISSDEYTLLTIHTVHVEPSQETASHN
- method: SPR (Biacore), antibody captured by anti-Fc on CM5 chip, B7-H7 injected, 37 C
- Protocol: The binding affinities of exemplary anti-B7-H7 antibodies to human B7-H7 and cyno B7-H7 were measured using SPR technology (Biacore system, GE Healthcare Life Sciences). Briefly, anti-Fc antibody (Sigma-Aldrich) was immobilized on all four flow cells of a CM5 chip using amine coupling reagents (GE Healthcare LifeSciences). Exemplary antibodies were captured on flow cells 2, 3, and 4 using flow cell 1 as a reference. […]
pKd: −log10 of the molar value.
# if value of pKd reaches 9, tag condition met; if it stays below, tag condition not met

INSERT INTO results (binder, assignedcategory) VALUES
  ('anti-B7-H7 antibody 28F5 (antibody, V domains shown, Mouse hybridoma antibody) VH: QVQLKESGPGLVAPSQSLSITCTVSGFSLTGYGVNWVRQPPGKGLEWLGVIWGDGSTDYNSVLKSRLSISKDNSKSQVFLKMNSLQTDDTARYYCAREATEYLYWYFDVWGAGTTVTVSS VL: DIVLTQSPASLAVSLGQRATISCRASESVEYYGSSLMQWYQQKPGQPPKLLIFAASNVESGVPPRFSGSGSGTDFNLNIHPVDEDDIAMYFCQQGRRVPWTFGGGTKLEIK', 'condition met'),
  ('anti-B7-H7 antibody 16D5 (antibody, V domains shown, Mouse hybridoma antibody) VH: QVQLQQSAAELARPGASVKMSCKASGYTFTTYTMHWVKQRPGQGLEWIGYINPSRGYSDYSQKFQGKSTLTTDKSSNTAYIQLTSLTSEDSAVYFCARGGYDFDYWGQGTTLTVSS VL: DIVMTQSHKFMSTSVGDRVSITCKASQDVGTAVAWYQQKPGQSPKLLLYWASTRHTGVPDRFTGSGSGTDYTLTISSVQAEDLALYHCQQHFITPYTFGGGTKLEIK', 'condition met'),
  ('anti-B7-H7 antibody 5B10 (antibody, V domains shown, Mouse hybridoma antibody) VH: EVQLQQSGPELEKPGASVKISCKASGYSFTGYNMNWVKQSNGKSLEWIGNIDPYSGGSTYNQKFKGKATLTVDKSSSTASLQLKSLTSEDSSVYYCARSFYDAPYLTYWGQGTLVTVSA VL: DIQMTQSPTSLSASVGETVTITCRASENIFIYLAWYQQKQGKSPQLLVFNAKTLAEGVPSRFSGSGSGTQFSLKINSLRPEDFGTYYCQHHYGTPPTFGGGTKLEV', 'condition not met');
